Attribution: PubChem BioAssay

- protocol_summary: growth suppression of beta-catenin knockout HCT116, pilot screen, human colon tumor cells (AID 823);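 further: 0% = wells killed by 20 µM Hyamine and 100% = untreated DMSO cell wells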
- condition_notes: CellTiter-Glo, 60 h, at 10 µM, active compounds read low
Results filed as inconclusive are left out.
parameter: viability (%)
Write the answer as a number in %, unit excluded.

Solved entries (count: 3):
| molecule | quantity_unit | measurement |
| --- | --- | --- |
| O=C(NCCN1C(=O)C2C3C=CC(C3)C2C1=O)Nc1ccccc1O (stereo unspecified) | % | 106 |
| Nc1nc2n(n1)C(c1ccco1)CC(c1ccc(F)cc1)N2 (stereo unspecified) | % | 98.4 |
| N#Cc1nc(COc2cccc(Cl)c2)oc1N1CCCC1 | % | 82.7 |

Form field viability, entry O=C(c1ccc(CS(=O)(=O)c2ccc(Br)cc2)o1)N1CCOCC1 : 104

The reported value for c1nc(NCCN2CCOCC2)c2sc3nc(N4CCOCC4)c4c(c3c2n1)CCC4 in terms of viability is 84.8

Lab note: CCOc1ccc(N=Cc2c(O)cc(C)oc2=O)cc1 gave viability of 107
